Cited source for all entries: patent US8575145B2

Recorded measurements of pIC50, one per entry
- Target system: PIM-1 (Homo sapiens (Human), UniProt P11309)
- Sequence (P11309 whole entry, species assumed): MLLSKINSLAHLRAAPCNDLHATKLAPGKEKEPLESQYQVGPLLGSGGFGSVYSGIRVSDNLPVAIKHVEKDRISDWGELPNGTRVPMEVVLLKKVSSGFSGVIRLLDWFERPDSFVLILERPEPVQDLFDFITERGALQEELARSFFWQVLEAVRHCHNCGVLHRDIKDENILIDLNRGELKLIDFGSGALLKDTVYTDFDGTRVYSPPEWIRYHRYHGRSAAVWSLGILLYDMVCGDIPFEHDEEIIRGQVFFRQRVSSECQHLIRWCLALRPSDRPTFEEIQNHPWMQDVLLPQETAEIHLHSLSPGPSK
- Protocol text: PIM-1 Enzyme Assay
- Assay type: biochemical
- Assay setup: 35 μM ATP, 0.25 nM PIM-1
Structures can show the parent of a compound that is named as a salt.
Keep in mind that pIC50 stands for -log10 of concentration in molar terms.

Cc1ccn2c(-c3ccc4cccc(OC5CCNCCC5F)c4n3)nnc2c1 (single isomer, unassigned) [Example 92] :: 9.00
FC1(COc2cccc3ccc(-c4nnc5ccccn45)nc23)CCCNC1 (stereo not drawn) :: 8.80
Fc1cc(O[C@H]2CCNC[C@H]2F)c2nc(-c3nnc4ccccn34)ccc2c1 (relative stereo) :: 8.10
COc1ccc2nnc(-c3ccc4cccc(OCC5(F)CCNCC5)c4n3)n2c1 [Example 109, dihydrochloride] :: 8.33
FC1CCNCCC1Oc1cccc2ccc(-c3nnc4ccccn34)nc12 (stereo not drawn) [Example 46] :: 9.00

Could you now look at the following compound, please?
Lab note: measured pIC50 of `NCCCNc1cccc2ccc(-c3nnc4ccccn34)nc12` was 8.30
